Test target: humanized therapeutic monoclonal antibody IgG1 (hIgG1)
Method notes: direct ELISA, hIgG1 coated, B-cell culture medium
The entries below are paired with their reported OD450.
Answer with a number only, understood to be in OD450.

Binder: rabbit anti-human IgG monoclonal antibody clone 2C5 (antibody, V domains shown) VH: QEQLVESGGDLVKPGASLTLTCTASGFSFSSGYYMCWVRQAPGKGLEWIACIYGGALTNTYYATWAKGRFTISKTSSTTVTLQMTSLTAADTATYFCARDLGAAGDAYNLWGPGTLVTVSS VL: ASDMTQTPASVSAAVGGTVTIKCQASESIYSGLAWYQQKPGQPPKLLIFDASDLASGVPSRFKGSRSETEYTLTISDLECADAATYYCQCTDRNSITSYAFGGGTEVVVKG
Result unit: OD450
OD450: 1.24
//
Binder: rabbit anti-human IgG monoclonal antibody clone 16F5 (antibody, V domains shown) VH: QQQLEESGGGLVKPGGTLTLTCKASGIDFSNYYYMCWVRQAPGKGLELIACIYTGSSGSTWYATWAKGRFTISKTSSTTVTLQMTSLTAADTATYFCARDRDVGSLYDSLDLWGQGTLVTVSP VL: AYDMTQTPASVEAAVGGTVTINCQASQSINNWLSWYQQKPGQRPKLLIYQASTLASGVSSRFKGSGSGTHFTLTISDLECADAATYYCQQGWSIDDIDNAFGGGTEVVVKG
Result unit: OD450
OD450: 1.39

get_value(item= rabbit anti-human IgG monoclonal antibody clone 11F9 (antibody, V domains shown) VH: QQQLEESGGGLVQPEGSLTLTCIASGFSFSSSHWICWVRQAPGKGLEWIACMSTSSGSTYDANWAKGRFTISKTSSTTVTLQMTSLTAADTATYFCARDVGGSTTYFDLWGPGTLVTVSS VL: AYDMTQTPASVSEPVGGTVTIKCQASQSISNELSWYQQKPGQPPKLLIYRASTLASGVPSRFKGSGSGTQFTLTINGVECADAATYYCQQGYSISNVDNTFGGGTEVVVKG , readout=OD450) returns 1.11
